Sourced from patent US9067937B2

# maps each entry to its IC50
# Tested on: 22Rv1 cells
# test_method_notes: Cell-based assay, anti-proliferative activity (Cell Counting Kit-8, 72 hours)
# Parameters: species or system human
# condition_description: Homo sapiens, 22Rv1, 72 h, read-out: IC50 (μM) (22Rvl)
Where a name gives a salt, the structure may show the parent alone.

[[record]]
molecule = "CC(=O)c1cnc2ccc(-c3cc(F)c(O)c(Cl)c3)nc2c1Nc1ccc(NCCN(C)C)nc1 [Example 39, trihydrochloride]"
readout_value = "0.38 µM"

[[record]]
molecule = "CC(=O)c1cnc2ccc(-c3cc(F)c(O)c(Cl)c3)nc2c1N[C@H]1CC[C@H](CN2CCN(C)CC2)CC1 [Example 68, trihydrochloride]"
readout_value = "0.039 µM"

[[record]]
molecule = "CC(=O)c1cnc2ccc(-c3cc(Cl)c(O)c(Cl)c3)nc2c1N[C@H]1CC[C@H](CN2CCOCC2)CC1"
readout_value = "0.034 µM"


Looking for the measured IC50 of CCC(=O)c1cnc2ccc(-c3cc(Cl)c(O)c(Cl)c3)nc2c1Nc1ccc(N2CCC[C@H](N)C2)nc1 [Example 207, trihydrochloride] , can you help?
0.034 µM

Looking for the measured IC50 of CN(C)C[C@H]1CC[C@H](Nc2c(C(=O)C3CCC3)cnc3ccc(-c4cc(Cl)c(O)c(Cl)c4)nc23)CC1 [Example 211, dihydrochloride] , can you help?
0.0072 µM

Looking for the measured IC50 of [2H]C([2H])([2H])N(C[C@H]1CC[C@H](Nc2c(C(C)=O)cnc3ccc(-c4cc(Cl)c(O)c(Cl)c4)nc23)CC1)C([2H])([2H])[2H] [Example 28, dihydrochloride] , can you help?
0.0052 µM

---

# tested_system: MELK (Homo sapiens, UniProt Q14680)
# Sequence (Q14680 whole entry, looked up): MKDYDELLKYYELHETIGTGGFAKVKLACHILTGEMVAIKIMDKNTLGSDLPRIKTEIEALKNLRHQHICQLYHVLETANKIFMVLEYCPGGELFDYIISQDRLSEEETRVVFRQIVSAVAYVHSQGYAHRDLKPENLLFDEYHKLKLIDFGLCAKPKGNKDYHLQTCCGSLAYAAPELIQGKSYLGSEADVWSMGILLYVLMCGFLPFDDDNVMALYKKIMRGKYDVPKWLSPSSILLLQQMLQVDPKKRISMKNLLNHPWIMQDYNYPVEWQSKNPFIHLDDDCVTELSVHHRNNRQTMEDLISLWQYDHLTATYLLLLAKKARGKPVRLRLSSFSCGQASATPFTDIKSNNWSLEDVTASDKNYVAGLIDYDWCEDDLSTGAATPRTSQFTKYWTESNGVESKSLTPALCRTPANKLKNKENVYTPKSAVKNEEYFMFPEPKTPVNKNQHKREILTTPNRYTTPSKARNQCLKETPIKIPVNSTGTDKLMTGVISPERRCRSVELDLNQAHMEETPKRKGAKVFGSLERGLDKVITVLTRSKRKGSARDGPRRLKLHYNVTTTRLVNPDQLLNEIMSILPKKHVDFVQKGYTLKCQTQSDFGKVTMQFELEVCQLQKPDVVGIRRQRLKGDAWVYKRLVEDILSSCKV
# test_method_notes: Kinase assay (IMAP fluorescence polarization, FITC-labeled histone H3 peptide)
# Assay type: biochemical
# condition_description: 50 micro-M ATP
Counter-ions that a name gives are not always drawn.
measurement_name: IC50
Answer with the figure and its unit, nothing else.

[[record]]
compound = "CCC(=O)c1cnc2ccc(-c3cc(Cl)c(O)c(Cl)c3)nc2c1Nc1ccc(N2CCC[C@@H](N)C2)nc1 [Example 214, trihydrochloride]"
readout_value = "0.0013 µM"


Looking for the measured IC50 of COc1cc(-c2ccc3ncc(S(C)(=O)=O)c(Nc4ccc(CN(C)C)cc4)c3n2)cc(Cl)c1O [Example 18, dihydrochloride] , can you help?
0.005 µM

Looking for the measured IC50 of CC(=O)c1cnc2ccc(-c3cc(Cl)c(O)c(Cl)c3)nc2c1NC1CCN(C)CC1 [Example 45] , can you help?
0.0058 µM

---

# Test system: 22Rv1 cells
# test_method_notes: Cell-based assay, anti-proliferative activity (Cell Counting Kit-8, 72 hours)
# Set-up: species or system human
# condition_description: Homo sapiens, 22Rv1, 72 h, read-out: IC50 (μM) (22Rvl)
# Description: Active candidate inhibitors against MELK were evaluated for their target-specific cytotoxicity using 22Rv1, T47D, A549, DU4475 and HT-1197 cells was used for negative control. 100 micro-L of cell suspension was seeded onto 96-well microtiter plate (ViewPlate-96FTC, PerkinElmer). […] Cellular growth was determined using Cell Counting Kit-8 (DOJINDO) at 72 hours after the exposure of the candidate inhibitors. […] Accurate IC50 values were calculated as described previously.
Where a name gives a salt, the structure may show the parent alone.
measurement_name: IC50 (µM)
I only need the number, in µM, no unit after it.

[[record]]
compound = "CCC(=O)c1cnc2ccc(-c3cc(Cl)c(O)c(Cl)c3)nc2c1Nc1ccc(N2CCC[C@@H](N)C2)nc1 [Example 214, trihydrochloride]"
tested_system = "22Rv1 cells"
readout_value = 0.0059

[[record]]
compound = "CC(=O)c1cnc2ccc(-c3cc(Cl)c(O)c(Cl)c3)nc2c1Nc1ccc(N2CCC[C@@H](N)C2)nc1 [Example 95, trihydrochloride]"
tested_system = "22Rv1 cells"
readout_value = 0.029

[[record]]
compound = "CC(=O)c1cnc2ccc(-c3cc(F)c(O)c(Cl)c3)nc2c1Nc1ccc(N2CCC(N(C)C)C2)nc1 (stereo not drawn) [Example 52, trihydrochloride]"
tested_system = "22Rv1 cells"
readout_value = 0.44


Looking for the measured IC50 of CC(=O)c1cnc2ccc(-c3cc(F)c(O)c(Cl)c3)nc2c1N[C@H]1CC[C@H](N(C)C)CC1 [Example 3, dihydrochloride] , can you help?
0.006

Looking for the measured IC50 of CC(=O)c1cnc2ccc(-c3cc(Cl)c(O)c(Cl)c3)nc2c1N[C@H]1CC[C@H](NC(=O)C(N)C(C)C)CC1 (stereo partly drawn) [Example 79, dihydrochloride] , can you help?
0.038

Looking for the measured IC50 of N[C@@H]1CCCN(c2ccc(Nc3c(C(=O)C4CC4)cnc4ccc(-c5cc(F)c(O)c(Cl)c5)nc34)cn2)C1 [Example 202] , can you help?
0.0044

---

# maps each entry to its IC50
# Tested on: A549 cells
# test_method_notes: Cell-based assay, anti-proliferative activity (Cell Counting Kit-8, 72 hours)
# Parameters: species or system human
# condition_description: Homo sapiens, A549, 72 h, read-out: IC50 (μM) (A549)
Structures can show the parent of a compound that is named as a salt.
I only need the number, in µM, no unit after it.

Looking for the measured IC50 of CC(=O)c1cnc2ccc(-c3cc(Cl)c(O)c(Cl)c3)nc2c1Nc1cnn(C2CCN(C)CC2)c1 [Example 33, dihydrochloride] , can you help?
0.93

Looking for the measured IC50 of CC(=O)c1cnc2ccc(-c3cc(F)c(O)c(Cl)c3)nc2c1Nc1ccc(NCCN(C)C)nc1 [Example 39, trihydrochloride] , can you help?
0.44

Looking for the measured IC50 of CC(=O)c1cnc2ccc(-c3ccc(O)c(OC(F)(F)F)c3)nc2c1N[C@H]1CC[C@H](CN(C)C)CC1 [Example 11, dihydrochloride] , can you help?
0.042

---

# maps each entry to its IC50
# System: HT1197 cells
# test_method_notes: Cell-based assay, anti-proliferative activity, MELK-negative control (Cell Counting Kit-8, 72 hours)
# Parameters: species or system human
# condition_description: Homo sapiens, HT1197, 72 h, read-out: IC50 (μM) (HTll97)
Structures can show the parent of a compound that is named as a salt.
I only need the number, in µM, no unit after it.

[[record]]
compound = "CC(C)C(=O)c1cnc2ccc(-c3cc(Cl)c(O)c(Cl)c3)nc2c1N[C@H]1CC[C@H](CN(C)C)CC1 [Example 216, dihydrochloride]"
readout_value = 0.025

[[record]]
compound = "CC(=O)c1cnc2ccc(-c3cc(F)c(O)c(Cl)c3)nc2c1N[C@H]1CC[C@@H](CN(C)C)CC1 [Example 93, dihydrochloride]"
readout_value = 0.19

[[record]]
compound = "CN(C)CCOc1ccc(Nc2c(S(C)(=O)=O)cnc3ccc(-c4cc(F)c(O)c(Cl)c4)nc23)cn1 [Example 25, dihydrochloride]"
readout_value = 21


Looking for the measured IC50 of CC(=O)c1cnc2ccc(-c3cc(Cl)c(O)c(Cl)c3)nc2c1Nc1ccc(OCCN(C)C)nc1 [Example 21, dihydrochloride] , can you help?
2.3

Looking for the measured IC50 of CC(=O)c1cnc2ccc(-c3cc(Cl)c(O)c(Cl)c3)nc2c1Nc1cnc(N2CCC(N)C2)nc1 (stereo not shown) [Example 41, trihydrochloride] , can you help?
100

Looking for the measured IC50 of N[C@H]1CCCN(c2ccc(Nc3c(C(=O)C4CC4)cnc4ccc(-c5cc(F)c(O)c(Cl)c5)nc34)cn2)C1 , can you help?
2.7

Looking for the measured IC50 of CC(=O)c1cnc2ccc(-c3cc(Cl)c(O)c(Cl)c3)nc2c1NC1CCN(C)CC1 , can you help?
0.45

Looking for the measured IC50 of CC(=O)c1cnc2ccc(-c3cc(F)c(O)c(Cl)c3)nc2c1Nc1ccc(CN2CCN(C)CC2)cc1 [Example 35, trihydrochloride] , can you help?
3.8

Looking for the measured IC50 of CC(=O)c1cnc2ccc(-c3cc(Cl)c(O)c(Cl)c3)nc2c1N[C@H]1CC[C@H](NC(=O)[C@@H]2CCCN2)CC1 [Example 75, dihydrochloride] , can you help?
8.4

Looking for the measured IC50 of CC(=O)c1cnc2ccc(-c3cc(Cl)c(O)c(Cl)c3)nc2c1N[C@H]1CC[C@H](NC(=O)C(C)N)CC1 (stereo partly shown) [Example 73, dihydrochloride] , can you help?
100

Looking for the measured IC50 of CNC1CCN(c2ccc(Nc3c(C(C)=O)cnc4ccc(-c5cc(Cl)c(O)c(Cl)c5)nc34)cn2)C1 (stereo not shown) [Example 53, trihydrochloride] , can you help?
100

Looking for the measured IC50 of CC(=O)c1cnc2ccc(-c3cc(Cl)c(O)c(Cl)c3)nc2c1N1CCC(CCN2CCCC2)CC1 [Example 36, dihydrochloride] , can you help?
4.7

Looking for the measured IC50 of [2H]C([2H])([2H])N(C[C@H]1CC[C@H](Nc2c(C(C)=O)cnc3ccc(-c4cc(Cl)c(O)c(Cl)c4)nc23)CC1)C([2H])([2H])[2H] [Example 28, dihydrochloride] , can you help?
0.14

Looking for the measured IC50 of CC(=O)c1cnc2ccc(-c3ccc(O)nc3)nc2c1N[C@H]1CC[C@H](CN(C)C)CC1 [Example 86, dihydrochloride] , can you help?
10

Looking for the measured IC50 of CC(=O)c1cnc2ccc(-c3c(C)n[nH]c3C)nc2c1N[C@H]1CC[C@H](CN(C)C)CC1 [Example 58, trihydrochloride] , can you help?
10

Looking for the measured IC50 of CC(=O)c1cnc2ccc(-c3ccc(C#N)nc3)nc2c1N[C@H]1CC[C@H](CN(C)C)CC1 [Example 87, dihydrochloride] , can you help?
2

Looking for the measured IC50 of CC(=O)c1cnc2ccc(-c3cc(F)c(O)c(Cl)c3)nc2c1N[C@H]1CC[C@H](NC(=O)C(N)C(C)C)CC1 (stereo partly shown) [Example 69, dihydrochloride] , can you help?
2.5

Looking for the measured IC50 of CC(=O)c1cnc2ccc(-c3cc(Cl)c(O)c(Cl)c3)nc2c1N[C@H]1CC[C@H](N)CC1 [Example 66, dihydrochloride] , can you help?
10

Looking for the measured IC50 of CC(=O)c1cnc2ccc(-c3ccc4[nH]cnc4c3)nc2c1N[C@H]1CC[C@H](CN(C)C)CC1 [Example 55, trihydrochloride] , can you help?
2

Looking for the measured IC50 of CC(=O)c1cnc2ccc(-c3ccc(O)c(OC(F)(F)F)c3)nc2c1N[C@H]1CC[C@H](CN(C)C)CC1 [Example 11, dihydrochloride] , can you help?
0.14
